Sourced from PubChem BioAssay (NCATS)

Target: Cytochrome P450 2C9 (Homo sapiens) (UniProt P11712)
Sequence (P11712 whole entry, looked up): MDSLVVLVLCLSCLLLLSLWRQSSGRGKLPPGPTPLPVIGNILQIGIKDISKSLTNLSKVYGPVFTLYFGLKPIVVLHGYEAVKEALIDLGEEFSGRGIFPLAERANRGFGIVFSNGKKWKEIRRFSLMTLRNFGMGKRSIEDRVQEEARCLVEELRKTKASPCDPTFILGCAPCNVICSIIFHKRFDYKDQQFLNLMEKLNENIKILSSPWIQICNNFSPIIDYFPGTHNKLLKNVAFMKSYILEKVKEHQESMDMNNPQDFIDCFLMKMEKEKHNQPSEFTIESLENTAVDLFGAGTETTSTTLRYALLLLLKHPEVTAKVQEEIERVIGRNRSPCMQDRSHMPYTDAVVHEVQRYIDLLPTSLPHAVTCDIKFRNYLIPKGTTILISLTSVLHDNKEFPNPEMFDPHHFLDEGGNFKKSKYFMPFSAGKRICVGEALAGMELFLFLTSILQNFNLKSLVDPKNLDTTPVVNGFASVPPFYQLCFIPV
Assay: Cytochrome P450 family 2 subfamily C member 9 (CYP2C9) small molecule antagonists: luciferase biochemical (cell-free) qHTS assay (AID 1645842); note: nearly all actives have a fitted effect of over 55% in size
Conditions: P450-Glo CYP2C9 enzyme assay, luciferin luminescence; series mostly up to 57.4 µM
Results filed as inconclusive are left out. Active and inactive are the calls of the source. Calls come from the whole dose curve; as a rule, active = well fitted inhibition curve with a large enough effect in the repeat runs; inconclusive = weak or mixed curves; inactive = no such curve, though single readings can be large or run the other way.
Choose the fitting class; nothing outside Y = active, N = inactive is accepted.

The following molecules have reported results that may help.
O=C1Nc2ccc3ncsc3c2/C1=C/c1cnc[nH]1 : Y
COc1ccc2c(c1)c(CCN(C)C)cn2S(=O)(=O)c1ccccc1 : Y
NC(=O)c1ncn2c1CN=C(c1ccccc1Br)c1cc(F)ccc1-2 : N
CCOP(=S)(OCC)SCSc1ccc(Cl)cc1 : Y

Problem: Which result was noted for this molecule in the test: C1=C(c2cnc[nH]2)c2ccsc2CC1
Result: Y

Problem: // param item: Cc1ccc(-n2nccn2)c(C(=O)N2CCN(c3nc4cc(Cl)ccc4o3)CCC2C)c1 (configuration not stated) ; yields the recorded call
Result: Y

Problem: Assay result, entry O=C(N[C@H]1CN2CCC1CC2)c1cc2cccc(Cl)c2s1 — outcome?
Result: N

Problem: Please share the test call associated with N#Cc1ccc([C@H]2CCCC[C@H]2O)cc1C(F)(F)F .
Result: Y

Problem: Just curious, what result did CCc1nn(C)c(C(=O)NCc2ccc(Oc3ccc(C)cc3)cc2)c1Cl get here?
Result: Y

Problem: What outcome does the record of this test show for Cc1sc2c(c1C)C(c1ccc(Cl)cc1)=NC(CC(=O)Nc1ccc(O)cc1)c1nnc(C)n1-2 (configuration not stated) ?
Result: N

Problem: Please indicate how the test categorized N#Cc1cn([C@@H]2O[C@H](CO)[C@H](O)[C@@H]2O)c2ncnc(N)c12 .
Result: N

Problem: Dear colleague, could you share the recorded outcome for O=C(N1CCCCC1Cc1ccccc1)n1cc(-c2ccc(-c3ccccc3)cc2)nn1 (configuration not stated) when you have a moment?
Result: Y

Problem: Query: recorded result category for CN(Cc1cccc(-c2ccncc2)c1)C(=O)Oc1ccc(-c2ccc(C(N)=O)cc2)cc1 in this test
Result: N

Problem: Which outcome was assigned to Fc1cc(F)c2c(c1)C1C=CCC1C(c1cccnc1)N2 (configuration not stated) in this test?
Result: Y

Problem: Which outcome was entered for the molecule Cc1ccc(Cn2nc(C(=O)N[C@@H]3C(C)(C)[C@@H]4CC[C@@]3(C)C4)cc2-c2ccc(Cl)c(C)c2)cc1 in this test?
Result: Y

Problem: Hello, I am checking results. What call was entered for CN(C(=O)C(c1ccccc1)c1ccccc1)[C@H](CN1CC[C@H](O)C1)c1ccccc1 ?
Result: N
